Please go through the items and note down their TGI.
Tested on: SF-295 CNS
Assay: NCI tumour cell line growth inhibition, 48 h

Challenge: For the compound C=C1C(=O)O[C@H]2C3OC3(C)CC/C=C(/C(=O)OC)[C@@H](OC(C)=O)[C@H](OC(=O)C3(C)OC3C)[C@H]12 (stereo partly drawn) , give its reported TGI.
Response given: 14.8 µg/mL

Challenge: Report TGI for `O=C1/C(=C/c2cccc([N+](=O)[O-])c2)Cc2ccccc21`
Response given: > 100 µM

Challenge: Indicate its recorded TGI; the compound in question is O=C(O)C1C2C=CC(O2)C1C(=O)NCc1ccncc1 (stereo not drawn)
Response given: > 100 µM
